# EXPERIMENT: Antioxidant activity assessed as OH-induced DNA oxidation at 150 uM by TBARS method
# Type: physicochemical
PARAMETER_MEASURED: Activity (%)

>>> recorded_result("O=C(NCCc1ccc(O)cc1)c1cc2ccc(O)cc2oc1=O")
71.5
>>> recorded_result("COc1cc2cc(C(=O)NCCc3ccc(O)cc3)c(=O)oc2cc1O")
68.1
>>> recorded_result("O=C(O)c1cc2ccccc2oc1=O")
82.6
>>> recorded_result("O=C(NCCc1ccccc1)c1cc2ccccc2oc1=O")
72.9
>>> recorded_result("O=C(NCCc1ccccc1)c1cc2ccc(O)cc2oc1=O")
75.3
>>> recorded_result("COc1cc2cc(C(=O)NCCc3ccccc3)c(=O)oc2cc1O")
73.6

###

# EXPERIMENT: Antioxidant activity assessed as OH-induced DNA oxidation at 150 uM by TBARS method
# Type: physicochemical
PARAMETER_MEASURED: Activity (%)

>>> recorded_result("O=C(NCCc1ccc(O)cc1)c1cc2ccccc2oc1=O")
76.4
>>> recorded_result("COc1cc2cc(C(=O)O)c(=O)oc2cc1O")
86.5
>>> recorded_result("O=C(O)c1cc2ccc(O)cc2oc1=O")
78.8

Reference source for all entries: ChEMBL document CHEMBL3352361
